# Tested on: MCF-7
# measurement notes: MTT cell viability assay, MCF-7 cells
# Format: cell-based
# condition info: Homo sapiens, MCF7, 48 h drug exposure
parameter: IC50 (µM)

Completed entries (count: 4):
O=C1C2=C(C(=O)c3c(O)ccc(O)c31)N(c1cccnc1)Cc1ccccc1O2 : 1.72
O=C1C2=C(C(=O)c3ccccc31)N(c1ccc(N3CCOCC3)nc1)Cc1ccccc1O2 : 2.28
CN1CCN(c2ccc(N3Cc4ccccc4OC4=C3C(=O)c3c(O)ccc(O)c3C4=O)cn2)CC1 : 0.91
O=C1C2=C(C(=O)c3c(O)ccc(O)c31)N(c1ccc(N3CCOCC3)nc1)Cc1ccccc1O2 : 0.72

I. CN(C)CCNc1ccc(N2Cc3ccccc3OC3=C2C(=O)c2cccc(O)c2C3=O)cn1
II. COc1cccc2c1OC1=C(C(=O)c3c(O)ccc(O)c3C1=O)N(c1ccc(C(N)=O)cc1)C2
[Q] Lower IC50: I or II ? Indicate your choice by writing its label.
[A] I
(I: 1.99 µM, II: 3.04 µM)

P. O=C1C2=C(Oc3ccccc3CN2c2cccnc2)C(=O)c2c(O)cccc21
Q. CN(C)CCNc1ccc(N2Cc3ccccc3OC3=C2C(=O)c2c(O)ccc(O)c2C3=O)cn1
[Q] Parameter check: reported IC50 is higher for which label, P or Q ? Indicate your choice by writing its label.
[A] P
(P: 2 µM, Q: 0.79 µM)
